- METHOD SUMMARY: compound fluorescence in toxin protease inhibitor counterscreen, primary screen, artefact control for toxin protease inhibitor project, biochemical, multiplex microsphere, HTS (AID 624483)
- DETAILS: compound autofluorescence counterscreen, microsphere flow cytometry; active compounds read high
Out of some 360,000 compounds screened, about 11,000 (3.1%) were called active. Roughly 2% stayed inconclusive and do not appear here. For the sample, actives were picked, then their nearest neighbours and some compounds at random.
MEASURED ENDPOINT: fluorescence intensity

>>> reported_result("CN1CCN(S(=O)(=O)c2ccc3[nH]cc(C(=O)O)c(=O)c3c2)CC1")
21500
>>> reported_result("COc1ccc(CCN2C(=O)C(C)=C(C)C2=O)cc1OC")
3920
>>> reported_result("Cc1ccc(S(=O)(=O)N2CCN(C)CC2)cc1")
4010
>>> reported_result("O=C(COC(=O)CCc1nc2ccccc2c(=O)[nH]1)Nc1ccc(N2CCOCC2)cc1")
4110
>>> reported_result("Cc1c(S(=O)(=O)NCc2ccccc2)c(=O)n(C)c(=O)n1C")
4270
>>> reported_result("COc1ccc(-c2ccc(C(=O)NCCN3CCOCC3)c3occc23)c(C)c1")
3620
>>> reported_result("CCOC(=O)C1CCN(Cc2nnc(-c3cccc(Br)c3)o2)CC1")
3660
>>> reported_result("Cc1ccc(CC2(C)C(=O)Nc3ccc(OC(F)(F)F)cc32)cc1 (centres undefined)")
3690
>>> reported_result("C#Cc1ccc(NC(=O)C2(C)CCN2C(=O)Cc2ccc(-c3ccccc3)cc2)cc1 (centres undefined)")
3720
